Entry source: the Human Domainome abundance scans (Beltran et al. 2025)

Reported abundance fitness by item:
B1: Proto-oncogene vav, residues 782 to 842; numbered along this chain, P15498 (parent)
chain: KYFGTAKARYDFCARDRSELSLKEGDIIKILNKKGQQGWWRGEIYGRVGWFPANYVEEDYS

- Variants of: B1
- protocolSummary: abundance fitness (aPCA) (normalised: wild type 0, dead -1); higher = more abundant; growth selection in yeast, the domain comes from the species named
- measurementConditions: Homo sapiens

Reference set, count: 8
[[record]]
variantdesignation = "S18G"
recordedvalue = -0.194

[[record]]
variantdesignation = "A8F"
recordedvalue = -0.785

[[record]]
variantdesignation = "K29A"
recordedvalue = -0.225

[[record]]
variantdesignation = "R47K"
recordedvalue = -0.051

[[record]]
variantdesignation = "T5A"
recordedvalue = -0.084

[[record]]
variantdesignation = "S21A"
recordedvalue = -0.26

[[record]]
variantdesignation = "Y10P"
recordedvalue = -0.847

[[record]]
variantdesignation = "S18V"
recordedvalue = -0.599


Input line: Quote abundance fitness reported for L31Y please.
Output line: -0.188
